# System Tested: T1, biotinylated Aβ1-40 peptide (biotinylated (N-biotinylated in Example 7))
# T1 construct: captured on streptavidin (SA) chip; also called Biotinylated Aβ peptide 1-40; Aβ1-40 on SA chip
# T1 sequence (peptide, as listed by the source): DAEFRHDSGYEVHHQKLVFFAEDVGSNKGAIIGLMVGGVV
# Method Notes: SPR, Fab over Aβ1-40 on SA chip
Task for the reader: assign each of the following binders its reported log10 koff.
Note: values are log10 of koff expressed in s⁻¹.

Some solved cases for reference:
| Binder | log10 koff |
| --- | --- |
| 9TL variant M41 Fab (Fab, V domains shown, Fab; human IgG2 CH1 and kappa CL) VH: QVQLVQSGAEVKKPGASVKVSCKASGYYTEAYYIHWVRQAPGQGLEWMGRIDPATGNTKYAPRLQDRVTMTRDTSTSTVYMELSSLRSEDTAVYYCASLYSQPVYWGQGTTVTVSS VL: DVVMTQSPLSLPVTLGQPASISCKSSQSLLYSDAKTYLNWFQQRPGQSPRRLIYQISRLDPGVPDRFSGSGSGTDFTLKISRVEAEDVGVYYCLQGTHYPVLFGQGTRLEIKR | -2.00 |
| 9TL variant M39 Fab (Fab, V domains shown, Fab; human IgG2 CH1 and kappa CL) VH: QVQLVQSGAEVKKPGASVKVSCKASGYYTEAYYIHWVRQAPGQGLEWMGRIDPATGNTKYAPRLQDRVTMTRDTSTSTVYMELSSLRSEDTAVYYCASLYSSPVYWGQGTTVTVSS VL: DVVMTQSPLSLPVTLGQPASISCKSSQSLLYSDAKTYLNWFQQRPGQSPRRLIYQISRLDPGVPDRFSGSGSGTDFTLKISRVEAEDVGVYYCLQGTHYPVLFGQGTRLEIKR | -2.64 |
| 9TL variant M51 Fab (Fab, V domains shown, Fab; human IgG2 CH1 and kappa CL) VH: QVQLVQSGAEVKKPGASVKVSCKASGYYTEAYYIHWVRQAPGQGLEWMGRIDPATGNTKYAPRLQDRVTMTRDTSTSTVYMELSSLRSEDTAVYYCASLYSLPVHWGQGTTVTVSS VL: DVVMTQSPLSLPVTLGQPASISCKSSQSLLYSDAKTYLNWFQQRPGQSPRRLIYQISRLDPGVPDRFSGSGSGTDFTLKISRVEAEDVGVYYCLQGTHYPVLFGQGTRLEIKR | -3.07 |
| 9TL variant W8 Fab (Fab, V domains shown, Fab; human IgG2 CH1 and kappa CL) VH: QVQLVQSGAEVKKPGASVKVSCKASGYYTEAYYIHWVRQAPGQGLEWMGRIDPATGNTKYAPRLQDRVTMTRDTSTSTVYMELSSLRSEDTAVYYCASLYSLPVYWGQGTTVTVSS VL: DVVMTQSPLSLPVTLGQPASISCKSSQSLLHSDSATYLNWFQQRPGQSPRRLIYQISRLDPGVPDRFSGSGSGTDFTLKISRVEAEDVGVYYCLQGTHYPVTFGQGTRLEIKR | -2.42 |

Write down log10 koff measured for item 9TL variant M54 Fab (Fab, V domains shown, Fab; human IgG2 CH1 and kappa CL) VH: QVQLVQSGAEVKKPGASVKVSCKASGYYTEAYYIHWVRQAPGQGLEWMGRIDPATGNTKYAPRLQDRVTMTRDTSTSTVYMELSSLRSEDTAVYYCASLYSLPVSWGQGTTVTVSS VL: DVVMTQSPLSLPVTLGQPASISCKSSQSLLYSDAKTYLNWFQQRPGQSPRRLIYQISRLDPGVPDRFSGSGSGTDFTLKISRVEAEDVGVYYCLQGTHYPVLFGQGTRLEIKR
-2.62
